tested on: UACC-257 melanoma; assay: NCI-60 one-dose screen, 48 h; conditions: 10 µM unless noted
The panel holds about 83,000 compounds, 20% with a hit somewhere; the sample as a whole holds those more often. Activity calls are given as the source filed them. How the source made its calls: active means growth percent below 10; inactive means the rest.
I would appreciate it if you answered using one of these outcomes: active, inactive

Check the results log: what was the call for N#Cc1c(-c2ccc(Cl)cc2)nc2c(-c3ccccc3)c(Nc3ccccc3)nn2c1N ? inactive

What classification did COc1cc(/C=C/C(=O)c2ccc(F)cc2)ccc1Oc1nc(NCCO)nc(N2CCOCC2)n1 end up with in this test? inactive

Please state the recorded outcome for this compound: COc1cccc(-c2nn(-c3ccccc3)cc2-c2ccnc(N3CCN(C(=O)c4ccccc4)CC3)c2)c1 inactive

Which outcome was assigned to C[C@@H](Nc1c(C#N)cnc2ccc(-c3cnc(N)nc3)cc12)c1ccccc1 in this test? inactive

Hello, I am checking results. What call was entered for Cc1cc2nc3c4cc(Cl)ccc4n(CC(=O)NCCN(C)C)c3nc2cc1C ? inactive

Identify the outcome logged in this assay for the compound shown: O=C1Nc2ccc(Cl)cc2/C1=C/c1ccc(OCC(=O)c2ccc(Br)cc2)cc1 inactive

Test call for this compound, please: COc1ccc(-c2nc3ccc(-c4nnc(SCC(=O)Nc5ccc(C(C)=O)cc5)o4)cc3[nH]2)cc1 inactive

// outcome(item) with item = NS(=O)(=O)c1cccc(Nc2nc(SCC(=O)c3ccc([N+](=O)[O-])cc3)nc3ccccc23)c1 inactive

Record lookup: outcome of this test for COC(=O)C1CN(S(=O)(=O)/N=C2\NC(=O)NC2=C(Cl)Cl)C1 ? inactive

Would you mind telling me which call this test gave Nc1ncc(-c2ccc3ncnc(N4CCc5cc(F)c(Cl)cc54)c3c2)cc1CO ? active

What call does the record list for Cn1c(SCC(=O)Nc2ccc(-c3nc4ccc([N+](=O)[O-])cc4[nH]3)cc2)nc2ccccc2c1=O ? inactive

Check the results log: what was the call for NC(=O)c1c(NC(=O)c2ccc(C3CCCCC3)cc2)sc2c1CCC(=O)C2 ? inactive

Hey, what did the test say about COc1ccc(-c2cc(C(=O)N=Nc3c(O)[nH]c4ccccc34)c3ccccc3n2)cc1OC ? inactive

What did the test return for COc1ccc(-c2nn3c(-c4ccccc4F)nnc3s2)cc1 ? inactive

Which result was noted for this compound in the test: O=C(CN1C(=O)/C(=C/c2ccccc2)SC1=S)N1CCOCC1 inactive

Recorded test call requested for COc1cc(OC)c(S(=O)(=O)NNC(=O)c2ccncc2)cc1C(=O)/C=C/c1ccc(C)cc1 inactive

For this compound, state the assay outcome: CCCC(=O)NC(c1ccc(N(CC)CC)cc1)c1cc(C)c2cccnc2c1O (stereo not given) inactive

Which result was noted for this compound in the test: Nc1nc(N)c2c(n1)NC(c1ccc(C(F)(F)F)cc1)CC(c1ccc(Nc3nc(NCCO)nc(Nc4ccc(Cl)cc4)n3)cc1)=N2 (stereo not given) inactive

For Oc1c(Cl)cc(Cl)c2ccc(CN3CCCCC3)nc12 , what call appears in the results of this test? inactive

What was the test verdict on O=C(CCN1C(=O)/C(=C/c2ccccc2)SC1=S)N1CCOCC1 ? inactive

Could you check what this test reported for Cc1nc(-c2cc3ccccc3oc2=O)ccc1C(=O)/C=C/c1ccccn1 ? inactive

For COc1ccccc1/C=C/C=N/NC1=NC2C(S1)N(C)C(=O)N2C (stereo not given) , what call appears in the results of this test? inactive

Any idea what this test logged for Cc1cc2nc3c4cc(Cl)ccc4n(CC(=S)NCCN(C)C)c3nc2cc1C ? active

Tell me the recorded outcome of this test for Cc1cccc(/C=C/c2nn3c(-c4ccco4)nnc3s2)c1 . inactive

Dear all, I need the recorded test outcome for N=C1CC(=O)NN1C(=O)CSc1nc2sc3c(c2c(=O)n1-c1ccc(Cl)cc1)CCCC3 , thank you. inactive

What was the test verdict on CS(=O)(=O)c1ccc(-c2nc3ccccn3c2/C=N/Nc2nc(-c3ccc(Br)cc3)cs2)cc1 ? inactive

Outcome? COc1ccc(/C=N/NC(=O)c2[nH]c3ccc(Br)cc3c2-c2ccccc2)o1 inactive

Given CC(C)(C)OC(=O)N1C(=O)c2c(c3c4ccccc4[nH]c3c3ccc4ccccc4c23)C1=O , state the outcome it received in this test. inactive

Recorded call for COc1ccc(/C=N/Nc2ccnc3cc(Cl)ccc23)cc1Cl ? active

Write down the call the test reported for this compound. Item: CS(=O)(=O)c1ccc(-c2nc3ccccn3c2C=Nc2ccc(Cl)cc2)cc1 inactive

Tell me the recorded outcome of this test for N[C@@H](Cc1cn(-c2c3ccccc3nc3ccccc23)nn1)C(=O)O . inactive

# outcome recorded in this test, key = N[C@@H](Cc1cn(-c2ccnc3ccccc23)nn1)C(=O)O inactive

// outcome(item) with item = CCN1CCN(/C(=N\c2sc(-c3ccccc3)nc2-c2ccccc2)c2ccccc2)CC1 inactive

Could you check what this test reported for COc1cc(/C=C/C(=O)c2ccc(Cl)cc2)ccc1Oc1nc(NCCO)nc(N2CCOCC2)n1 ? inactive

Dear colleague, could you share the recorded outcome for CC1=C(C)C(=O)C(Nc2ccccc2)=C(Cl)C1=O when you have a moment? inactive

Could you kindly confirm the outcome this assay logged for CCOC(=O)c1c(Nc2ccccc2)nn2c(N)c(C#N)c(-c3ccc(Cl)cc3)nc12 ? inactive

I'd appreciate the recorded outcome for Clc1ccc2c(OCCCN3CCOCC3)c3oc4ccccc4c3nc2c1 from this test. inactive

Name the outcome recorded for Fc1ccc(-c2cc3nc(C(Cl)Cl)nc(-c4ccccc4)n3n2)cc1 in the assay. active

Status in this test for CCC/C=C/C=C/C(=O)N[C@@H](Cc1cc(F)cc(F)c1)C(=O)N[C@@H]1C(=O)N2CCC[C@H]2C(=O)N2CCCC[C@H]2C(=O)N[C@@H](C)C(=O)N2C[C@H](C)C[C@H]2C(=O)O[C@H]1C ? inactive

Any idea what this test logged for CCN1C(=S)N(CC)C2C1NN=C1SC(c3ccccc3)=CC(=O)N12 (stereo not given) ? inactive
